Listed compounds paired with reported log10 TGI
test system: NCI-H226 lung; experiment: NCI tumour cell line growth inhibition, 48 h
Measurement Name: log10 TGI (log10 of the value in µM)

{"Compound": "Cc1ncc(C(=O)Nc2ccc(CN3CCN(C)CC3)c(C(F)(F)F)c2)cc1C#Cc1c(N)ncc2ccccc12", "Reported Value": 0.02}
{"Compound": "Clc1cc(-c2ccccc2)nc2ccccc12", "Reported Value": 1.97}
{"Compound": "Cc1ccc(S(=O)(=O)N/N=C2/CCC(C(C)(C)C)CC2Br)cc1 (configuration not stated)", "Reported Value": 1.53}
{"Compound": "COc1cccc(C2SC(C)C(=O)N2CCc2cccs2)c1 (configuration not stated)", "Reported Value": 1.24}
{"Compound": "CSc1ccc(SC2c3ccc(C)cc3Oc3nc(N)c(C#N)c(N)c32)cc1 (configuration not stated)", "Reported Value": 0.51}
{"Compound": "S=c1sc2cscc2s1", "Reported Value": 1.69}

====

system: SF-295 CNS; experiment: NCI tumour cell line growth inhibition, 48 h; in the data active = GI50 below about 0.43 µM; inactive = the rest
Outcome codes: active, inactive

{"Compound Smiles": "Cc1ncc(C(=O)Nc2ccc(CN3CCN(C)CC3)c(C(F)(F)F)c2)cc1C#Cc1c(N)ncc2ccccc12", "Assigned Class": "inactive"}
{"Compound Smiles": "Cc1cc(N(CCCNc2ccnc3cc(Cl)ccc23)Cc2ccc3c(c2)OCO3)nc(N2CCCCC2)n1", "Assigned Class": "inactive"}
{"Compound Smiles": "COc1ccc(Cn2cc3c(c2-c2cc(OC)c(OC)c(OC)c2)CCc2cnoc2-3)cc1N", "Assigned Class": "active"}
{"Compound Smiles": "NC(=O)c1ccccc1NC(=O)c1ccccc1Cl", "Assigned Class": "inactive"}
{"Compound Smiles": "CN(C)CCCCn1ccc2c1C(=O)c1c(c(O)c3ccccc3c1O)C2=O", "Assigned Class": "inactive"}
{"Compound Smiles": "O=c1oc2c3ccc4cnccc4c3[nH]c2c2ccccc12", "Assigned Class": "inactive"}
{"Compound Smiles": "O=C(COc1cccc(/C=C2\\Oc3ccc4ccccc4c3C2=O)c1)c1ccc(Cl)cc1", "Assigned Class": "inactive"}
{"Compound Smiles": "Cc1nc2c(N3CCCC3)nc(N3CCNCC3)nc2nc1NCc1ccccc1", "Assigned Class": "inactive"}
{"Compound Smiles": "CCCCCCCCCCCCCCCCCCOc1ccccc1CC(=O)NCC[N+](C)(C)C", "Assigned Class": "inactive"}
{"Compound Smiles": "COc1cc(NC(=O)NCc2ccco2)ccc1-c1ccc(NC(=O)NCc2ccco2)cc1OC", "Assigned Class": "inactive"}

====

test system: NCI-H460 lung
Outcome codes: label 1 = active, label 0 = inactive

{"Compound": "Clc1ccc(C2CC(c3cccc(Nc4ccncc4)c3)=NN2c2cc(Cl)cc(Cl)c2)cc1 (centres undefined)", "Assigned Class": "label 0"}
{"Compound": "NC(=O)c1ccccc1NC(=O)c1ccccc1Cl", "Assigned Class": "label 0"}
{"Compound": "COc1cc(F)c(/C=C/c2cc(/C=C/c3cc(OC)c(OC)cc3F)n(-c3cc(F)cc(F)c3)n2)cc1OC", "Assigned Class": "label 0"}
{"Compound": "NCCCN1CCN(CCCNc2nc3ccccc3c3[nH]c4ccccc4c23)CC1", "Assigned Class": "label 1"}
{"Compound": "COc1ccc(Cn2cc3c(c2-c2cc(OC)c(OC)c(OC)c2)CCc2cnoc2-3)cc1N", "Assigned Class": "label 1"}
{"Compound": "FC(F)(F)c1cccc2c(SCCc3n[nH]c(=S)o3)ccnc12", "Assigned Class": "label 0"}
{"Compound": "CCC1(NC(=O)c2cc(F)c(F)c(F)c2F)C(=O)NC(=O)N(C(C)C)C1=O (centres undefined)", "Assigned Class": "label 0"}
{"Compound": "CC(C)C[C@H](NC(=O)CCn1ccc2ncccc2c1=O)B(O)O", "Assigned Class": "label 0"}
{"Compound": "COc1cccc(CCC(=O)c2cc3c(N)c(C(=O)Nc4cccc(Cl)c4C)sc3nc2C)c1", "Assigned Class": "label 1"}
{"Compound": "CC(C)C(=O)[O-].CC(C)C(=O)[O-].N.N.N.N.[Co+3].[O-][Cl+3]([O-])([O-])[O-]", "Assigned Class": "label 0"}
{"Compound": "O=C(CCSc1ccnc2c(C(F)(F)F)cccc12)N/N=C/c1cc(Cl)c(Cl)cc1Cl", "Assigned Class": "label 0"}
{"Compound": "N#Cc1nc2c(S(=O)(=O)c3ccccc3)c(N)n(Cc3ccc(Cl)cc3)c2nc1C#N", "Assigned Class": "label 0"}
{"Compound": "COc1cc2c3c(n(CCCBr)c(=O)c2cc1OC)-c1ccc(F)cc1C3=O", "Assigned Class": "label 0"}
{"Compound": "COc1cc(C2CC(=O)Nc3c2ccc2ccccc32)cc(Br)c1OC (centres undefined)", "Assigned Class": "label 1"}
{"Compound": "NS(=O)(=O)c1ccc(-n2ncc3c(Nc4ccccc4)ncnc32)cc1", "Assigned Class": "label 0"}
{"Compound": "COC(=O)[C@]12CC[C@@H](C)[C@H](C)[C@@H]1C1=CC[C@@H]3[C@@]4(C)C(C=O)=C[C@@](C)(COS(C)(=O)=O)C4[C@H](O)C[C@@]3(C)[C@]1(C)CC2 (some centres undefined)", "Assigned Class": "label 0"}
{"Compound": "CC1(C)CC([P+](c2ccccc2)(c2ccccc2)c2ccccc2)=NN1", "Assigned Class": "label 0"}
{"Compound": "CC(=O)[O-].[Zn].c1ccc(/C(=N\\Nc2ccccn2)c2ccccn2)cc1", "Assigned Class": "label 1"}
{"Compound": "CC(C)C[C@H](NC(=O)[C@H](Cc1cccc2ccccc12)NS(=O)(=O)c1cccc2cccnc12)B(O)O", "Assigned Class": "label 1"}

Data origin, for the record: PubChem BioAssay (NCI)
